- ASSAYED_TARGET: HIV-1 reverse transcriptase (HIV-1, UniProt P04585;P04585 P04585:588-1147,P04585:588-1027)
- RUN_DESCRIPTION: filter; HRT buffer, 6 mM MgCl2, 37 C
- MEASUREMENT_SETUP: tags: overexpressed in E. coli, purified per Davies et al. 1991; label: 5'-32P
RECORDED_METRIC: pKd
Scale note: pKd = -log10(concentration in M).

stdin: Give the reported pKd for this binder. RT6 (ssDNA) DNA: ATCCGCCTGATTAGCGATACTCAGGCGTTAGGGAAGGGCGTCGAAAGCAGGGTGGGACTTGAGCAAAATCACCTGCAGGGG
stdout: 8.30
